assayProtocol: Toxicity liver stage against HepG2, at 10uM
Format: cell-based
Set-up: test concentration 10 uM, cell line HepG2-A16-CD81EGFP
details: human, HepG2-A16-CD81EGFP cells; read-out: INHIBITION
Below, each entry is listed alongside its reported cytotoxicity at 10 µM.
# output: bare number, implied unit %

Prompt line: For the compound CCc1nc(C2CCCN2Cc2nc(C(C)(C)C)no2)no1 (configuration not stated) , give its measured cytotoxicity at 10 µM value.
Response line: 12.9

***
Prompt line: Note down cytotoxicity at 10 µM recorded for COCCN(CCC#N)S(=O)(=O)c1ccc(F)cc1F
Response line: -3.54

Prompt line: Entry O=S(=O)(C1CC1)N1CC[C@@H]2[C@@H]1CCN2Cc1cccs1 needs its cytotoxicity at 10 µM filled in; supply it.
Response line: 5.77

Prompt line: Item C[C@@H]1CN(C(=O)c2c[nH]c(=O)c(Cl)c2)CC[C@@]1(O)C1CCOCC1 : provide cytotoxicity at 10 µM
Response line: 1.09

Prompt line: Note down cytotoxicity at 10 µM recorded for Cc1cc(NC(=O)CN2CCOC(Cn3cccn3)C2)n(C)n1 (configuration not stated)
Response line: 5.56

Prompt line: Give cytotoxicity at 10 µM for the following compound: Cc1nc2ccc(CN3CC4(CCOC4)CCC3=O)cc2[nH]1 (configuration not stated)
Response line: 11.7

Prompt line: Consider the compound Cc1csc(NC(=O)C2CCN(Cc3cccc4c3OCCO4)CC2)n1 and give its recorded cytotoxicity at 10 µM.
Response line: -17.9

Prompt line: Dear colleague, please send me the reported cytotoxicity at 10 µM for CN(C)C(CNC(=O)NCc1cc[nH]n1)c1ccco1 (configuration not stated) when you can.
Response line: -5.47

Prompt line: Annotate the compound CC(NC(=O)NCCNc1ccccn1)c1cccs1 (configuration not stated) with its measured cytotoxicity at 10 µM.
Response line: 1.48

Prompt line: Answer with the recorded cytotoxicity at 10 µM of COCCN1CCc2c(cnc(-c3ccccc3)c2C(=O)O)C1 only.
Response line: 2.24

Prompt line: Give cytotoxicity at 10 µM for O=C(CCc1nc2cc(Br)cnc2[nH]1)NCCN1CCOCC1
Response line: 5.08

Prompt line: Specify measured cytotoxicity at 10 µM for CCCS(=O)(=O)N(C)C(=O)CCc1ccsc1 .
Response line: 0.321

Prompt line: In one line, give reported cytotoxicity at 10 µM of the entry Cc1cccc(CN2Cc3[nH]nc(COCCO)c3C2)n1 .
Response line: 0.442

Prompt line: Note down cytotoxicity at 10 µM recorded for CC1(C)COCCN1C(=O)Cc1csc(Cc2ccccn2)n1
Response line: 3.31

Prompt line: Identify measured cytotoxicity at 10 µM corresponding to CC(C)(CN)NS(=O)(=O)c1c(F)cccc1F
Response line: -8.89

Prompt line: Using known records, supply cytotoxicity at 10 µM for c1ccc2c(c1)CCN2c1nc(N2CCOCC2)c2nn[nH]c2n1
Response line: -3.29

Prompt line: For Cc1cccc(-c2noc(CN3CCC(c4ccn[nH]4)CC3)n2)c1 , write its cytotoxicity at 10 µM.
Response line: 4.13

Prompt line: State its cytotoxicity at 10 µM for this compound: Cc1ccc2nc3n(c2c1)[C@@H](CNCc1nccs1)COC3
Response line: -4.31

----------
assayProtocol: Toxicity liver stage against HepG2, at 10uM
Type: cell-based
Set-up: test concentration 10 uM, cell line HepG2-A16-CD81EGFP
details: human, HepG2-A16-CD81EGFP cells; read-out: INHIBITION
Measured cytotoxicity at 10 µM, listed per entry.
The reply should contain only the number, in %.

Below are worked cases with known answers.
Prompt line: Query cytotoxicity at 10 µM for COc1ccccc1OCCNS(=O)(=O)N1CCOCC1
Response line: 9.37

Prompt line: Answer with the recorded cytotoxicity at 10 µM for the molecule listed here: O=C1CCCN1c1cccc(CNCc2cc(F)ccc2F)c1
Response line: 15.8

Prompt line: Please give measured cytotoxicity at 10 µM of the following entry: Cc1cc(CC(C)NC(=O)Cc2cc(F)ccc2C)[nH]n1 (stereo not drawn)
Response line: -42.9

Prompt line: Hello, please tell me recorded cytotoxicity at 10 µM for this one: Cc1nc2ccccc2nc1CN1CCc2c(nc(C3CC3)n2C)C1
Response line: 7.97

Prompt line: Give the reported cytotoxicity at 10 µM for this molecule. Cc1c(CS(C)(=O)=O)cccc1NC(=O)CC1CCCC1
Response line: -6.72

Prompt line: Specify reported cytotoxicity at 10 µM for the molecule shown: CC1CCCN(C(=O)c2ccc(-c3ccco3)o2)C1 (stereo not drawn)
Response line: 4.23

Prompt line: Answer with reported cytotoxicity at 10 µM of c1cnn(CC2CN(c3ncnc4sccc34)CCO2)c1 (stereo not drawn)
Response line: 25.1

Prompt line: Retrieve cytotoxicity at 10 µM measured for Cc1nccn1-c1ccc(N2CCC(NC(C)CC(C)C)CC2)cc1 (stereo not drawn) and print it.
Response line: 1.71

Prompt line: Give reported cytotoxicity at 10 µM value for CC(=O)c1c(O)n(C)c2ccc(F)cc12
Response line: 6.76

Prompt line: Quote cytotoxicity at 10 µM reported for CCOCC(O)CN1CCN(C(=O)c2cccc(CC#N)c2)CC1 (stereo not drawn) please.
Response line: -16.4

New cases:
Prompt line: Give recorded cytotoxicity at 10 µM. Cc1ncsc1CN1CC[C@H]2OCC[C@@]2(C(=O)N2CCCC2)C1
Response line: 7.63

Prompt line: Answer with the recorded cytotoxicity at 10 µM of COc1ccc(-c2ccnc(N)c2)c(C)c1 only.
Response line: 6.63

Prompt line: Recall and state the measured cytotoxicity at 10 µM for O=C(Cn1cc(Cl)cn1)N1CCNC1=O .
Response line: -13.2

Prompt line: Give the reported value of cytotoxicity at 10 µM for this record: CCC(C)NS(=O)(=O)c1ccc(C(=O)NC2(C#N)CCC2)cc1 (stereo not drawn)
Response line: -7.79

----------
assayProtocol: Toxicity liver stage against HepG2, at 10uM
Format: cell-based
Set-up: test concentration 10 uM, cell line HepG2-A16-CD81EGFP
details: human, HepG2-A16-CD81EGFP cells; read-out: INHIBITION
readoutKind: cytotoxicity at 10 µM (%)
Write the answer as a number in %, unit excluded.

See these solved cases before continuing.
Prompt line: Identify measured cytotoxicity at 10 µM corresponding to O=C(Nc1cnc2n1CCCC2)c1cccc(NC(=O)C2CCCC2)c1
Response line: -5.09

Prompt line: Recall and state the measured cytotoxicity at 10 µM for CC(C)CN1CCCC1c1ccc(C(=O)Nc2ccc3[nH]nnc3c2)s1 (stereo not drawn) .
Response line: 19.1

Prompt line: Tell us which cytotoxicity at 10 µM value is on record for Cc1ccc2nc(-c3nc4c([nH]3)CCCNC4=O)cn2c1
Response line: 4.42

Prompt line: Give the value of cytotoxicity at 10 µM reported for the following: O=C(Cn1nc(C(F)(F)F)c(Cl)c1C1CC1)NN1CCOCC1
Response line: 5.01

Prompt line: Identify measured cytotoxicity at 10 µM corresponding to CCN(CCSc1ccccc1)C(=O)c1cn(C2CCC(N)CC2)nn1 (stereo not drawn)
Response line: -2.93

Prompt line: Could you please provide reported cytotoxicity at 10 µM for N#CC1Sc2nnc(-c3ccccc3F)n2N=C1N (stereo not drawn) ? Thanks!
Response line: -0.634

Turning now to a further record.
Prompt line: Query cytotoxicity at 10 µM for CC1CCN(CC2(O)CCCN(Cc3cccc(F)c3F)C2=O)CC1 (stereo not drawn)
Response line: 0.801

----------
assayProtocol: Toxicity liver stage against HepG2, at 10uM
Assay type: cell-based
Set-up: test concentration 10 uM, cell line HepG2-A16-CD81EGFP
details: human, HepG2-A16-CD81EGFP cells; read-out: INHIBITION
readoutKind: cytotoxicity at 10 µM (%)
Value expressed in %; do not type the unit.

Please review the entries below; each comes with its answer.
Prompt line: Tell us which cytotoxicity at 10 µM value is on record for Cc1cc(C)n(-c2cncc(N3CCN(C(=O)C(C)C)CC3)n2)n1
Response line: -2.9

Prompt line: Read off the recorded cytotoxicity at 10 µM for O=C(COC[C@@]12CCC[C@@H]1CN(C1CCC1)C2)N1CCCC1
Response line: -110

Prompt line: Name the recorded cytotoxicity at 10 µM of the item CCC(=O)N(C)CC(=O)Nc1ccc(Br)cn1 in your answer.
Response line: 7.48

Others:
Prompt line: Kindly indicate its recorded cytotoxicity at 10 µM. Item: CSc1ccccc1C(=O)N1CCN(C)C2(CCC(=O)N(C)CC2)C1 (stereo unspecified)
Response line: 3.84

Prompt line: Indicate the recorded cytotoxicity at 10 µM value for this molecule: CCOCC(O)CN1CCN(C(=O)c2cnc3n[nH]c(C)c3c2)CC1 (stereo unspecified)
Response line: -7.69

Prompt line: Identify measured cytotoxicity at 10 µM associated with COc1nc(C)c(C(=O)N2CCc3[nH]nc(Cc4ccccc4)c3C2)s1
Response line: -2.53

----------
The following compounds are listed with their measured cytotoxicity at 10 µM values.
assayProtocol: Toxicity liver stage against HepG2, at 10uM
Type: cell-based
Parameters: test concentration 10 uM, cell line HepG2-A16-CD81EGFP
details: human, HepG2-A16-CD81EGFP cells; read-out: INHIBITION
Numbers only; they are read as %.

// solved cases for cytotoxicity at 10 µM follow
Prompt line: Input CC(NCc1ccc(OCC(N)=O)cc1)c1ccc2c(c1)CCCC2 (stereo not drawn) , output reported cytotoxicity at 10 µM.
Response line: -0.699

Prompt line: Indicate its recorded cytotoxicity at 10 µM; the compound in question is COCCO[C@@H]1C[C@H]2CN(C(=O)c3cccnc3)CCN2C1
Response line: -4.58

Continuing:
Prompt line: Report measured cytotoxicity at 10 µM; entry is Cc1ccc(-n2cccn2)cc1S(=O)(=O)N1C[C@H]2CC[C@@H](C1)N(C)C2
Response line: 1.62

Prompt line: Name the recorded cytotoxicity at 10 µM of the item CCNc1cc2c(nn1)CCN(C(=O)c1cc3c(s1)CCOC3)C2 in your answer.
Response line: -8.51
